These entries and their values trace back to ChEMBL document CHEMBL1641462.

# System: Brain
# Assay Summary: AUC (0 to 60 mins) in P-gp/BCRP knockout mouse brain at 2.8 to 5.6 MBq, iv
# Format: ADME, organism-based
# Condition Summary: in vivo
Quantity: AUC (SUV·min)
Provide the reading as a plain figure in SUV·min.

**Query** Please supply the value of reported AUC for the item COc1cc(NC(=O)c2cnc3ccccc3c2)c(C(=O)Nc2ccc(CCN3CCc4cc(OC)c(OCC[18F])cc4C3)cc2)cc1OC
**Result** 32.9

**Query** Let me know recorded AUC for COc1cc2c(cc1OC)CN(CCc1ccc(NC(=O)c3cccc4c(=O)c5cccc(OCC[18F])c5[nH]c34)cc1)CC2 , thanks.
**Result** 39.8

---

# Assay Summary: Fold increase in testis-to-blood ratio of drug level in FVB mouse at 1 to 4.8 MBq, iv co-administered with 5 mg/kg, iv of GF120918
# Condition Summary: testis and blood, with GF120918, 5 mg/kg iv
Kindly state Fold increase for each of the entries shown.
Form field (numeric): enter value without unit.

**Query** Answer with the recorded Fold increase for the compound listed here: COc1cc(NC(=O)c2cnc3ccccc3c2)c(C(=O)Nc2ccc(CCN3CCc4cc(OC)c(OCC[18F])cc4C3)cc2)cc1OC
**Result** 5

**Query** Answer with the recorded Fold increase for the compound listed here: COc1cc2c(cc1OC)CN(CCc1ccc(NC(=O)c3cccc4c(=O)c5cccc(OCC[18F])c5[nH]c34)cc1)CC2
**Result** 7

---

So I've got a bunch of compounds here, and I need their AUC values.
# Test system: Blood
# Assay Summary: AUC (0 to 60 mins) in wild type mouse blood at 2.8 to 5.6 MBq, iv
# Format: ADME, tissue-based
A number alone suffices; assume SUV·min.

**Query** Report AUC for COc1cc(NC(=O)c2cnc3ccccc3c2)c(C(=O)Nc2ccc(CCN3CCc4cc(OC)c(OCC[18F])cc4C3)cc2)cc1OC
**Result** 33.2

**Query** Entry COc1cc2c(cc1OC)CN(CCc1ccc(NC(=O)c3cccc4c(=O)c5cccc(OCC[18F])c5[nH]c34)cc1)CC2 needs its AUC filled in; supply it.
**Result** 25.6

---

# System: Blood
# Assay Summary: AUC (0 to 60 mins) in P-gp knockout mouse blood at 2.8 to 5.6 MBq, iv
# Type: ADME, tissue-based
I'd appreciate it if you could supply AUC values for the items below.
Answer format: numeric, SUV·min implied, no suffix.

**Query** Name the value of AUC reported for COc1cc2c(cc1OC)CN(CCc1ccc(NC(=O)c3cccc4c(=O)c5cccc(OCC[18F])c5[nH]c34)cc1)CC2 when tested on Blood.
**Result** 23.5

**Query** Write down the reported AUC (system: Blood) of COc1cc(NC(=O)c2cnc3ccccc3c2)c(C(=O)Nc2ccc(CCN3CCc4cc(OC)c(OCC[18F])cc4C3)cc2)cc1OC
**Result** 45

---

Assignment: determine reported AUC for the given molecules.
# Tested on: Brain
# Assay Summary: AUC (0 to 60 mins) in wild type mouse brain at 2.8 to 5.6 MBq, iv co-administered with GF120918
# Type: ADME, organism-based
# Condition Summary: in vivo
Quick note: number first, unit second.

**Query** Look up Brain data: AUC of COc1cc2c(cc1OC)CN(CCc1ccc(NC(=O)c3cccc4c(=O)c5cccc(OCC[18F])c5[nH]c34)cc1)CC2 , then report it.
**Result** 30.2 SUV·min

**Query** Enter recorded AUC with Brain for COc1cc(NC(=O)c2cnc3ccccc3c2)c(C(=O)Nc2ccc(CCN3CCc4cc(OC)c(OCC[18F])cc4C3)cc2)cc1OC here.
**Result** 28.1 SUV·min
